# procedure-details: soluble on expression in E. coli; label from the status in PepcDB or PDB records
quantity: soluble on expression in E. coli

MSLACGEFSLIARYFDRVRSSRLDVETGIGDDCALLNIPEKQTLAISTDTLVAGNHFLPDIDPADLAYKALAVNLSDLAAMGADPAWLTLALTLPEVDEPWLEAFSDSLFALLNYYDMQLIGGDTTRGPLSMTLGIHGYIPAGRALKRSGAKPGDWIYVTGTPGDSAAGLAVLQNRLQVSEETDAHYLIQRHLRPTPRILHGQALRDIASAAIDLSDGLISDLGHIVKASGCGARVDVDALPKSDAMMRHVDDGQALRWALSGGEDYELCFTVPELNRGALDVAIGQLGVPFTCIGQMSADIEGLNFVRDGMPVTFDWKGYDHFATPEGGSHHHHHH | soluble
MNKIALFVDVQNIYYTCREAYQRQFNYRKLWQHLSTQGEIVSAVAYAIHRGDDGQLKFQDALRHIGFELKLKPFIQRSDGSAKGDWDVGITIDVLDAAPNVDTVILLSGDGDFAILLEKITQKYGVKAEVYGVPQLTAKALMDATTQFNPIDDVLLL | soluble
MDAVDRGVYFDEDFHVRILDVDKYNASKSLQDNTNVFINNIQNMQGLVDKYVSAIDQQVERLEAEKLKAIGLRNRVAALSEERKRKQKEQERMLAEKQEELERLQMEEQSLIKVKGEQELMIQKLSDSSSGAAYV | not soluble
MLTPERHQMILQLVKEQKVVKLQQLVERTESSESTIRRDLAQLEKQRLLKRVHGGAAVLTGKGQEPTMVEKSSKNIQIKQQIAKYAASVIEQGDCIYLDAGSTTFEMIPFLINKDVTVVTNGLMHIEALVENNIRAYLLGGMMKSRTKALIGAMAQESMQKYRFDKCFLGANGVHEQLGFTTPDPEEALLKQMALTLANEGYFLIDESKFSEVAFAKIANVEDANIITNHLEIDLEKYKQQTNVIEADKQLEHHHHHH | soluble

Entry MVASSINEESSLAVNLTSDVEKASKTLFKAFEKSYANDYLMKKFFHIPITEKVSRARINAMIHYYTTCYHDLDGEIAEANDFDAVAIWSRPGCHLPATLSDDESFNKIFFSRLDCEEARSHASGNGLLLPLCHRKRS has what soluble on expression in E. coli?
not soluble

Entry MGSDKIHHHHHHMKFIVKTQMDMEAVAGNYIREVLPNAKVTIAPEGYPGIVIVESEEENALQKILEVPEVEKVYPVLIEVPANLDSIKSAADEIVKYIKEGETFAVRTKKRGKRDFSSVDVNVVLGARIKDLTNAEVNLSYPDKVVQVEIIGEKAYISVIPGKEYTKWKKYPKDKPDCRKLFRKLTIVQMPYWGDYKTARAFGEKIGRAAQAFEVKELIIAPKEKMNAYELMAFIRGVKEGQESRYQIQKEAYPWEVEKVPVTVWDLYQVIRDKRRNRRLIIITDPKGPTLNEVKDKLARDMYYAKEIIIFIGSREGIPIGLFRFADYVVDLAPYMTFATEHGIPATLVALWTIYEEELRRRGEIND has what soluble on expression in E. coli?
not soluble
